- TEST_METHOD_NOTES: Cytotoxicity against BHK21 cells after 48 to 96 hrs by MTT assay
- Format: cell-based, Mesocricetus auratus, BHK-21
- EXPERIMENTAL_CONDITIONS: hamster
OUTCOME_MEASURE: CC50

Examples with their reported CC50 follow.
molecule=[O-][n+]1n[nH]c2c(Cl)c3ncccc3cc21 outcome_measure=CC50 result="> 100 µM"
molecule=O=[N+]([O-])c1c2cccnc2c(Cl)c2[nH]nnc12 outcome_measure=CC50 result="> 100 µM"
molecule=Clc1c2ncccc2cc2nccnc12 outcome_measure=CC50 result="70 µM"
molecule=Clc1c2ncccc2cc2nn[nH]c12 outcome_measure=CC50 result="> 100 µM"
molecule=c1cnc2cc3nccnc3cc2c1 outcome_measure=CC50 result="> 100 µM"
molecule=COc1ccccc1-c1nc2cc3cccnc3cc2[nH]1 outcome_measure=CC50 result="32 µM"

For each of the molecules below, note its CC50.
1. CCOC(=O)C(C)c1nc2cc3cccnc3c(Cl)c2[nH]c1=O (stereo unspecified)
2. Clc1c2ncccc2cc2nc(C3CCCCC3)[nH]c12
3. Clc1c2ncccc2cc2ncc(-c3ccccc3)nc12
4. CC(C)c1nc2c(Cl)c3ncccc3cc2[nH]c1=O
5. N#CCn1nnc2cc3cccnc3c(Cl)c21
6. c1ccc(-c2ccc(-c3nc4cc5cccnc5cc4[nH]3)cc2)cc1

Response:
1: > 100 µM; 2: 26 µM; 3: > 100 µM; 4: > 100 µM; 5: > 100 µM; 6: 20 µM

// for each molecule in input: emit CC50
1. c1ccc(-c2nc3cc4cccnc4cc3[nH]2)cc1
2. CCc1nc2cc3cccnc3c(Cl)c2[nH]c1=O
3. O=c1[nH]c2cc3cccnc3c(Cl)c2nc1Cc1ccccc1
4. O=c1[nH]c2c(Cl)c3ncccc3cc2nc1-c1ccccc1

Response:
["40 µM", "95 µM", "> 100 µM", "> 100 µM"]

* * *

Please go through the items and note down their pEC50.
- Tested on: Coxsackievirus B5
- TEST_METHOD_NOTES: Antiviral activity against Human coxsackievirus B5 Ohio-1 infected in african green monkey Vero 76 cells assessed as reduction of virus-induced plaque formation after 3 days using crystal violet staining
- Format: functional, organism-based
- EXPERIMENTAL_CONDITIONS: Enterovirus B, Ohio-1, Vero, 72 h
pEC50: −log10 of the molar value.

# count of solved cases: 6
compound=c1cnc2cc3[nH]cnc3cc2c1 test_target="Coxsackievirus B5" result="< 4.00"
compound=[O-][n+]1n[nH]c2c(Cl)c3ncccc3cc21 test_target="Coxsackievirus B5" result=4.07
compound=COc1ccccc1-c1nc2cc3cccnc3cc2[nH]1 test_target="Coxsackievirus B5" result=4.33
compound=c1ccc(-c2ccc(-c3nc4cc5cccnc5cc4[nH]3)cc2)cc1 test_target="Coxsackievirus B5" result=5.52
compound=O=C(CCl)Cn1nnc2c(Cl)c3ncccc3cc21 test_target="Coxsackievirus B5" result="< 4.00"
compound=CC(C)c1nc2c(Cl)c3ncccc3cc2[nH]c1=O test_target="Coxsackievirus B5" result="< 4.00"

Count: 7. Required value per item: pEC50.
1. [O-][n+]1n[nH]c2c(Cl)c3nccc(O)c3cc21
2. Oc1ccnc2c(Cl)c3[nH]c(-c4ccccc4)nc3cc12
3. CCOC(=O)C(C)c1nc2c(Cl)c3ncccc3cc2[nH]c1=O (centres undefined)
4. N#CCn1nnc2cc3cccnc3c(Cl)c21
5. Clc1c2ncccc2cc2nccnc12
6. Clc1c2ncccc2cc2ncc(-c3ccccc3)nc12
7. O=[N+]([O-])c1c2cccnc2c(Cl)c2[nH]n[n+]([O-])c12

Response:
1: < 4.00; 2: < 4.00; 3: < 4.00; 4: < 4.00; 5: 4.30; 6: < 4.00; 7: < 4.00

Query: For the compound Clc1c2ncccc2cc2nc[nH]c12 , what pEC50 is on record?
Response: < 4.00

* * *

- TEST_METHOD_NOTES: Cytotoxicity against human MT4 cells after 96 hrs by MTT assay
- Assay type: cell-based
Task for the reader: assign each of the following molecules its reported CC50 at 96 h.
Answers are plain numbers, in µM.

compound_string=O=c1[nH]c2cc3cccnc3c(Cl)c2nc1-c1ccccc1 numeric_readout=22
compound_string=O=c1[nH]c2cc3cccnc3c(Cl)c2nc1Cc1ccccc1 numeric_readout=15

As a next step, examine the molecule that follows.
Query: Bench note: what CC50 at 96 h did O=C(CCl)Cn1nnc2c(Cl)c3ncccc3cc21 show?
Response: 21

* * *

- Tested on: Yellow fever virus
- TEST_METHOD_NOTES: Antiviral activity against Yellow fever virus 17D Stamaril Pasteur J07B01 infected in hamster BHK21 cells assessed as inhibition of virus-induced cytopathogenicity after 3 to 4 days by MTT assay
- Format: functional, cell-based
- EXPERIMENTAL_CONDITIONS: Stamaril Pasteur J07B01, BHK-21
OUTCOME_MEASURE: EC50

Use the examples below as a reference point.
compound="CCOC(=O)C(C)c1nc2cc3cccnc3c(Cl)c2[nH]c1=O (stereo not given)" test_target="Yellow fever virus" result="> 100 µM"
compound="CCOC(=O)C(C)c1nc2c(Cl)c3ncccc3cc2[nH]c1=O (stereo not given)" test_target="Yellow fever virus" result="50 µM"

Record EC50 for all entries; do not skip any.
1. C[C@@]1(O)[C@H](O)[C@@H](CO)O[C@H]1n1cnc2c(=O)[nH]c(N)nc21
2. CC(C)c1nc2c(Cl)c3ncccc3cc2[nH]c1=O
3. Oc1ccnc2c(Cl)c3nccnc3cc12
4. CC(C)c1nc2cc3cccnc3c(Cl)c2[nH]c1=O
5. CCc1nc2cc3cccnc3c(Cl)c2[nH]c1=O
6. O=[N+]([O-])c1c2cccnc2c(Cl)c2[nH]n[n+]([O-])c12
7. Oc1ccnc2c(Cl)c3[nH]nnc3cc12

Response:
1. 1.9 µM
2. > 100 µM
3. > 85 µM
4. > 100 µM
5. > 95 µM
6. > 100 µM
7. > 100 µM

Consider the following items and state reported EC50 for each.
1. Clc1c2ncccc2cc2ncc(-c3ccccc3)nc12
2. O=C(CCl)Cn1nnc2cc3cccnc3c(Cl)c21
3. c1cnc2cc3[nH]nnc3cc2c1
4. COc1ccccc1-c1nc2cc3cccnc3cc2[nH]1
5. Clc1c2ncccc2cc2nccnc12

Response:
1. > 100 µM
2. > 65 µM
3. > 100 µM
4. > 32 µM
5. > 70 µM

Quick request: EC50 for each listed item, please.
1. Clc1c2ncccc2cc2nc[nH]c12
2. Clc1c2ncccc2cc2nn[nH]c12
3. Clc1ccc(-c2nc3cc4cccnc4cc3[nH]2)cc1
4. Clc1c2ncccc2cc2nc(C3CCCCC3)[nH]c12
5. O=c1[nH]c2cc3cccnc3c(Cl)c2nc1Cc1ccccc1
6. c1cnc2cc3[nH]cnc3cc2c1

Response:
["> 100 µM", "> 100 µM", "> 100 µM", "> 26 µM", "> 100 µM", "> 100 µM"]

* * *

- TEST_METHOD_NOTES: Antiviral activity against Bovine viral diarrhea virus 1-NADL infected in MDBK cells assessed as inhibition of virus-induced cytopathogenicity after 3 to 4 days by MTT assay
- Assay type: functional, cell-based
- EXPERIMENTAL_CONDITIONS: Bovine viral diarrhea virus isolates and strains
pEC50: −log10 of the molar value.
OUTCOME_MEASURE: pEC50

compound_string=Clc1c2ncccc2cc2nc(CBr)c(CBr)nc12 outcome_measure=pEC50 result="< 4.70"
compound_string=[O-][n+]1n[nH]c2c(Cl)c3nccc(O)c3cc21 outcome_measure=pEC50 result="< 4.00"
compound_string=Oc1ccnc2c(Cl)c3[nH]nnc3cc12 outcome_measure=pEC50 result="< 4.00"

Parameters: items (list). Returns: pEC50 for each item.
1. Clc1c2ncccc2cc2nc[nH]c12
2. Clc1c2ncccc2cc2nn[nH]c12
3. Clc1c2ncccc2cc2nc(-c3ccccc3)c(-c3ccccc3)nc12

Response:
1: < 4.00; 2: < 4.00; 3: < 4.00

* * *

Assign pEC50 to each entry below.
- System: Human orthopneumovirus
- TEST_METHOD_NOTES: Antiviral activity against Human respiratory syncytial virus A2 infected in african green monkey Vero 76 cells assessed as reduction of virus-induced plaque formation after 5 days using crystal violet staining
- Assay type: functional, organism-based
- EXPERIMENTAL_CONDITIONS: 120 h
pEC50: −log10 of the molar value.

Previously resolved entries follow.
compound_string=Oc1ccnc2c(Cl)c3[nH]nnc3cc12 result="< 4.00"
compound_string=Nc1ccc(-c2nc3cc4cccnc4c(Cl)c3[nH]2)cc1 result="< 4.00"
compound_string=Clc1c2ncccc2cc2nn[nH]c12 result="< 4.00"
compound_string=Clc1c2ncccc2cc2nc(C3CCCCC3)[nH]c12 result="< 4.00"

Would you kindly look at the next entry?
Query: May I ask what pEC50 has been recorded for Clc1c2ncccc2cc2nc(CBr)c(CBr)nc12 ?
Response: < 4.00
